- subject of test: Melanocortin receptor 4 (Homo sapiens, UniProt P32245)
- Sequence (P32245 whole entry): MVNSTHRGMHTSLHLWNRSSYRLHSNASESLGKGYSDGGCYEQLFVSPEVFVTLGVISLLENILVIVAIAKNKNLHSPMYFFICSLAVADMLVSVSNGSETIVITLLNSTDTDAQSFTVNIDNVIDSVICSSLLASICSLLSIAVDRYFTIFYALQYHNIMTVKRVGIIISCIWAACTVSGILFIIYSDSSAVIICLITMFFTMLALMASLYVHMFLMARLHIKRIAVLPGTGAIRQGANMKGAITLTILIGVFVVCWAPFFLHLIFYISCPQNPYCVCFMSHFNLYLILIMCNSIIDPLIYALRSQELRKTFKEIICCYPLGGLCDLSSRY
- method description: Agonist activity at human MC4 receptor
assay readout: EC50 (nM)

Some molecules with known EC50 results, for comparison:
Cc1cc2c(cc1Cl)C1(CCN(C(=O)[C@@H]3CN(C(C)(C)C)C[C@H]3c3ccc(F)cc3F)CC1)CC2C(C)(C)c1nnco1 (stereo in doubt; 5d1) = 211
Cc1cc2c(cc1Cl)C1(CCN(C(=O)[C@@H]3CN(C4CCOCC4)C[C@H]3c3ccc(F)cc3F)CC1)C[C@@H]2C(C)(C)c1ncnn1C = 0.9
Cc1cc2c(cc1Cl)C1(CCN(C(=O)[C@@H]3CN(C(C)(C)C)C[C@H]3c3ccc(F)cc3F)CC1)CC2C(C)(C)c1cnn[nH]1 (some centres not stated) = 4.2

(1) Cc1cc2c(cc1Cl)C1(CCN(C(=O)[C@@H]3CC(N(C)C4CCOCC4)C[C@H]3c3ccc(F)cc3F)CC1)C[C@@H]2C(C)(C)c1ncnn1C (some centres not stated)
(2) Cc1cc2c(cc1Cl)C1(CCN(C(=O)[C@@H]3CN(C(C)(C)C)C[C@H]3c3ccc(F)cc3F)CC1)CC2C(C)(C)c1nnco1 (stereo in doubt; 5d2)
(3) Cc1nc(C(C)(C)C2CC3(CCN(C(=O)[C@@H]4CN(C(C)(C)C)C[C@H]4c4ccc(F)cc4F)CC3)c3cc(Cl)c(C)cc32)no1 (some centres not stated)
(4) Cc1cnc(C(C)(C)[C@H]2CC3(CCN(C(=O)[C@@H]4CN(C(C)(C)C)C[C@H]4c4ccc(F)cc4F)CC3)c3cc(Cl)c(C)cc32)o1
Query block: Please produce an ascending ranking of these molecules based on EC50. Answer by listing the labels in the order asked for.
Result block: 1, 2, 3, 4
(1: 0.11 nM, 2: 2.2 nM, 3: 14 nM, 4: 48 nM)

* * *

- method description: Volume of distribution in Sprague-Dawley rat at 1 mg/kg, iv and 4 mg/kg, po
- Format: ADME, organism-based
- condition description: in vivo
assay readout: Vd (L/kg)

Cc1cc2c(cc1Cl)C1(CCN(C(=O)[C@@H]3CC(N(C)C4CCOCC4)C[C@H]3c3ccc(F)cc3F)CC1)C[C@@H]2C(C)(C)c1ncnn1C (some centres undefined) = 9.7
Cc1cc2c(cc1Cl)C1(CCN(C(=O)[C@@H]3CN(C4CCOCC4)C[C@H]3c3ccc(F)cc3F)CC1)C[C@@H]2C(C)(C)c1ncnn1C = 10

(I) Cc1cc2c(cc1Cl)C1(CCN(C(=O)[C@@H]3CN(C(C)(C)C)C[C@H]3c3ccc(F)cc3F)CC1)C[C@@H]2C(C)(C)c1ncnn1C
(II) Cc1cc2c(cc1Cl)C1(CCN(C(=O)[C@@H]3CCN(C(C)(C)C)C[C@H]3c3ccc(F)cc3F)CC1)C[C@@H]2C(C)(C)c1ncnn1C
Query block: Of I and II , whose reported Vd is the larger number? Mark your answer with the label of the selected entry.
Result block: II

* * *

- method description: Half life in Sprague-Dawley rat at 1 mg/kg, iv and 4 mg/kg, po
- Format: ADME, organism-based
- condition description: in vivo
assay readout: half-life (h)

Cc1cc2c(cc1Cl)C1(CCN(C(=O)[C@@H]3CCN(C(C)(C)C)C[C@H]3c3ccc(F)cc3F)CC1)C[C@@H]2C(C)(C)c1ncnn1C = 11

(A) Cc1cc2c(cc1Cl)C1(CCN(C(=O)[C@@H]3CN(C(C)(C)C)C[C@H]3c3ccc(F)cc3F)CC1)C[C@@H]2C(C)(C)c1ncnn1C
(B) Cc1cc2c(cc1Cl)C1(CCN(C(=O)[C@@H]3CC(N(C)C4CCOCC4)C[C@H]3c3ccc(F)cc3F)CC1)C[C@@H]2C(C)(C)c1ncnn1C (some centres undefined)
(C) Cc1cc2c(cc1Cl)C1(CCN(C(=O)[C@@H]3CN(C4CCOCC4)C[C@H]3c3ccc(F)cc3F)CC1)C[C@@H]2C(C)(C)c1ncnn1C
Query block: Please put the entries in order of rising half-life. Reply: labels, ordered per the request.
Result block: C, B, A

src = ChEMBL document CHEMBL1268979
